Ref: patent US8680159B2

Recorded % Inhibition (r-B1R) at 10 μM values for a group of molecules are listed next.
# EXPERIMENTAL TARGET: B1R receptor of the rat (CHO K1 cells stably transfected with the B1R gene of the rat) (Rattus norvegicus, UniProt P97583)
# Construct: expressed in transfected cells; host or cells: CHO K1 cells (Chinese hamster ovary), stably transfected
# Sequence (P97583 1-337): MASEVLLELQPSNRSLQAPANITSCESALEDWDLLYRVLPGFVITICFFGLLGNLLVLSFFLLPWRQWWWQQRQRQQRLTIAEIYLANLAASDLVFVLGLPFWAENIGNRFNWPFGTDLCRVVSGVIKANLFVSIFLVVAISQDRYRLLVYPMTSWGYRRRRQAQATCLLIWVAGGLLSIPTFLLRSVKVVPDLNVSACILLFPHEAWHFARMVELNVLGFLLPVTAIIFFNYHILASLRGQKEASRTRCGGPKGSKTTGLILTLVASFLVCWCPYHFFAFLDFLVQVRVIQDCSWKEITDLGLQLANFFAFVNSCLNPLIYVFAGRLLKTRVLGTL
# TEST NAME: Functional study on the bradykinin receptor 1 (B1R), Ca2+ fluorescence (Fluo-4) FLIPR/Novostar assay, rB1R cells
# Format: cell-based
# PARTICULARS: 10 μM
Your answer should be a plain number; it is taken to be in %.

The measured % Inhibition (r-B1R) at 10 μM associated with CN(C(=O)c1ccc2c(c1)C(NC(=O)c1cc(F)ccc1Cl)CC2)C1CCN(c2ccncc2)CC1 (stereo not shown) reads 103

Recorded result, CC(C)CC(=O)NC1CCOc2ccc(C(=O)N(C)C3CCN(c4ccncc4)CC3)cc21 (stereo not shown) , % Inhibition (r-B1R) at 10 μM: 104

Entry CN(C(=O)c1ccc2c(c1)C(NC(=O)c1cc(F)ccc1Cl)CCC2)C1CCN(c2ccncc2)CC1 (stereo not shown) ; % Inhibition (r-B1R) at 10 μM = 104

Would you kindly look at the next entry?
% Inhibition (r-B1R) at 10 μM reported for this molecule CN(C(=O)c1ccc2c(c1)C(N(C)C(=O)C1CCCCC1)CC2)C1CCN(c2ccncc2)CC1 (stereo not shown) : 104

###

# EXPERIMENTAL TARGET: B1R receptor of the rat (CHO K1 cells stably transfected with the B1R gene of the rat) (Rattus norvegicus)
# Construct: expressed in transfected cells; host or cells: CHO K1 cells (Chinese hamster ovary), stably transfected
# TEST NAME: Functional study on the bradykinin receptor 1 (B1R), Ca2+ fluorescence (Fluo-4) FLIPR/Novostar assay, rB1R cells
# Type: cell-based
# PARTICULARS: CHO-K1, 10 μM, read-out: % Inhibition (r-B1R) at 10 μM
Measured inhibition at 10 µM, listed per entry.
Write the value in % as a bare number.

Sample records with inhibition at 10 µM:
Reported inhibition at 10 µM for CN(C(=O)c1ccc2c(c1)C(NC(=O)c1cncnc1)CC2)C1CCN(c2ccncc2)CC1 (stereo not drawn) was 78

# inhibition at 10 µM of CN(C(=O)c1ccc2c(c1)CCC2NS(=O)(=O)Cc1ccccc1C(F)(F)F)C1CCN(c2ccncc2)CC1 (stereo not drawn) = 80

Recorded inhibition at 10 µM (compound Cc1cc(N2CCC(N(C)C(=O)c3ccc4c(c3)C(NS(=O)(=O)Cc3ccccc3C(F)(F)F)CC4)CC2)cc(C)n1 (stereo not drawn) ): 112

The reported inhibition at 10 µM of the compound Cc1cc(N2CCC(N(C)C(=O)c3ccc4c(c3)C(NC(=O)Nc3cccc(Cl)c3Cl)CC4)CC2)cc(C)n1 (stereo not drawn) was 91

CN(C(=O)c1ccc2c(c1)C(NC(=O)c1ccccc1Cl)CC2)C1CCN(c2ccncc2)CC1 (stereo not drawn) yielded inhibition at 10 µM of 105

Value of measured inhibition at 10 µM for the entry Cc1ccc(F)c(C(=O)NC2CCc3ccc(C(=O)N(C)C4CCN(c5ccc6cnccc6c5)CC4)cc32)c1Cl (stereo not drawn) : 111

Summary for this compound, CN(C(=O)c1ccc2c(c1)C(NC(=O)C1CCCCC1)CCO2)C1CCN(c2ccncc2)CC1 (stereo not drawn) : inhibition at 10 µM is 104

get_value(item= CN(C(=O)c1ccc2c(c1)C(N(C)C(=O)c1cc(F)ccc1Cl)CC2)C1CCN(c2ccncc2)CC1 (stereo not drawn) , readout=inhibition at 10 µM) returns 111

Others:
So, CN(C(=O)c1ccc2c(c1)C(NC(=O)c1cc(F)ccc1Cl)CCO2)C1CCN(c2ccncc2)CC1 (stereo not drawn) ? Its inhibition at 10 µM was 103

Sure, the documented inhibition at 10 µM for CN(C(=O)c1ccc2c(c1)C(NC(=O)Nc1cc(C(F)(F)F)ccc1Cl)CCC2)C1CCN(c2ccncc2)CC1 (stereo not drawn) is 103

Please fill in: inhibition at 10 µM reported for CN(C(=O)c1ccc2c(c1)C(NC(=O)c1cccc(C(F)(F)F)c1Cl)CCO2)C1CCN(c2ccncc2)CC1 (stereo not drawn) = 111

Note to self: inhibition at 10 µM recorded for Cc1cc(N2CCC(N(C)C(=O)c3ccc4c(c3)C(NC(=O)CC(C)C)CC4)CC2)cc(C)n1 (stereo not drawn) was 111

For this compound ( CN(C(=O)c1ccc2c(c1)C(NC(=O)c1cncnc1)CCC2)C1CCN(c2ccncc2)CC1 (stereo not drawn) ), measured inhibition at 10 µM is 104

The compound Cc1cc(N2CCC(N(C)C(=O)c3ccc4c(c3)C(N(C)C(=O)Nc3cc(Cl)cc(Cl)c3)CC4)CC2)cc(C)n1 (stereo not drawn) showed inhibition at 10 µM equal to 95

###

Reported inhibition at 10 µM values for the following compounds.
# EXPERIMENTAL TARGET: B1R receptor of the rat (CHO K1 cells stably transfected with the B1R gene of the rat) (Rattus norvegicus)
# Construct: expressed in transfected cells; host or cells: CHO K1 cells (Chinese hamster ovary), stably transfected
# TEST NAME: Functional study on the bradykinin receptor 1 (B1R), Ca2+ fluorescence (Fluo-4) FLIPR/Novostar assay, rB1R cells
# Assay type: cell-based
# PARTICULARS: CHO-K1, 10 μM, read-out: % inhibition (rat B1R) at 10 μM
Hi! Could you send only the number? It should be in %, unit omitted.

Solved entries (count: 6):
Measured inhibition at 10 µM, Cc1cc(N2CCC(N(C)C(=O)c3ccc4c(c3)[C@H](N(C(=O)c3ccccc3Cl)C(C)C)CC4)CC2)nc(C)n1 : 77

Reported inhibition at 10 µM of CN(C(=O)c1ccc2c(c1)[C@H](NS(=O)(=O)c1ccc(F)cc1)CC2)C1CCN(c2ccncc2)CC1 : 104

Item: CN(C(=O)c1ccc2c(c1)[C@H](NC(=O)c1cccc(C(F)(F)F)c1Cl)CC2)C1CCN(c2ccncc2)CC1 | inhibition at 10 µM: 98

GET /value?item= O=C(NCC1CCN(c2ccncc2)CC1)c1ccc2c(c1)[C@H](NC(=O)c1ccccc1Cl)CC2 &field=inhibition at 10 µM returns 108

Sure, the documented inhibition at 10 µM for CN(C)c1cc(N2CCC(N(C)C(=O)c3ccc4c(c3)[C@H](NC(=O)c3ccccc3Cl)CC4)CC2)ccn1 is 103

For this compound ( Cc1cc(N2CCC(N(C)C(=O)c3ccc4c(c3)[C@H](N(C)C(=O)c3ccccc3C)CC4)CC2)nc(C)n1 ), measured inhibition at 10 µM is 106

---
Notebook: CN(C(=O)c1ccc2c(c1)[C@H](NC(=O)c1ccc(F)cc1)CC2)C1CCN(c2ccncc2)CC1 , inhibition at 10 µM read as 105

For record CN(CCC1CCN(c2ccncc2)CC1)C(=O)c1ccc2c(c1)[C@H](NC(=O)c1ccccc1Cl)CC2 the listed inhibition at 10 µM is 99

// field: inhibition at 10 µM; key: CN1CCC(N2CCC(NC(=O)c3ccc4c(c3)CC[C@H]4N3Cc4cccc(Cl)c4C3=O)CC2)CC1 ; value = 18

The compound identified as CN(C(=O)c1ccc2c(c1)[C@H](NC(=O)c1ccccc1Cl)CC2)C1CCN(c2nccn2C)CC1 registered its inhibition at 10 µM at 104

# compound CN(C(=O)c1ccc2c(c1)CC[C@H]2N1Cc2cccc(Cl)c2C1=O)C1CCN(Cc2ccnc(N3CCCC3)c2)CC1 ; its inhibition at 10 µM = 50

The compound identified as CN(C(=O)c1ccc2c(c1)[C@H](NC(=O)c1ccccc1Cl)CC2)C1CCC(Oc2ccncc2)CC1 (some centres unmarked) registered its inhibition at 10 µM at 96

So for CN(C(=O)c1ccc2c(c1)[C@H](NC(=O)c1ccccc1Cl)CC2)C1CCN(c2ncnc3ccccc23)CC1 , the logged inhibition at 10 µM turned out to be 91

Summary for this compound, CCN(C(=O)c1ccc2c(c1)[C@H](NC(=O)c1ccccc1Cl)CC2)C1CCN(c2ccncc2)CC1 : inhibition at 10 µM is 104

###

# EXPERIMENTAL TARGET: B1R receptor of the rat (CHO K1 cells stably transfected with the B1R gene of the rat) (Rattus norvegicus)
# Construct: expressed in transfected cells; host or cells: CHO K1 cells (Chinese hamster ovary), stably transfected
# Sequence (P97583 1-337): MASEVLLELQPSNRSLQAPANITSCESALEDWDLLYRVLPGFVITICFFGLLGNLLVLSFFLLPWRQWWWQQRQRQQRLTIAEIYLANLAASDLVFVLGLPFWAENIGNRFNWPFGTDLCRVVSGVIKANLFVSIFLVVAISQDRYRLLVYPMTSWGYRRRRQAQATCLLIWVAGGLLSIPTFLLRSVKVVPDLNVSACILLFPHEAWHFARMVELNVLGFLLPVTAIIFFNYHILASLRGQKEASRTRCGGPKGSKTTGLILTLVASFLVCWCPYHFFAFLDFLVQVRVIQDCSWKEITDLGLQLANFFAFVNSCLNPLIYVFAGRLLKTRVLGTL
# TEST NAME: Functional study on the bradykinin receptor 1 (B1R), Ca2+ fluorescence (Fluo-4) FLIPR/Novostar assay, rB1R cells
# Type: cell-based
# PARTICULARS: CHO-K1, 10 μM, library compounds CC_H, read-out: % Inhibition (r-B1R) at 10 μM
ASSAY ENDPOINT: inhibition at 10 µM (%)
Only the number, expressed in %, is required.

// recorded inhibition at 10 µM for CN(C(=O)c1ccc2c(c1)C(NC(=O)c1ccccc1Cl)CC2)C1CCN(c2ccnc(N3CCCC3)n2)CC1 (stereo not shown) : 101

Further cases:
Value of measured inhibition at 10 µM for the entry Cc1cc(N2CCC(N(C)C(=O)c3ccc4c(c3)C(NC(=O)CCC3CCCC3)CC4)CC2)nc(N(C)C)n1 (stereo not shown) : 100

In plain terms, CN(C(=O)c1ccc2c(c1)C(NC(=O)CCC1CCCC1)CC2)C1CCN(c2ccnc(N3CCCC3)n2)CC1 (stereo not shown) has a documented inhibition at 10 µM of 102

inhibition at 10 µM recorded for this molecule, CN(C)c1nccc(N2CCC(N(C)C(=O)c3ccc4c(c3)C(NC(=O)c3ccccc3Cl)CC4)CC2)n1 (stereo not shown) , is 101

Record summary for CN(C(=O)c1ccc2c(c1)C(NC(=O)c1cccnc1C(F)(F)F)CC2)C1CCN(c2ccnnc2)CC1 (stereo not shown) : reported inhibition at 10 µM = 99

Entry CN(C)c1nccc(N2CCC(N(C)C(=O)c3ccc4c(c3)C(NC(=O)c3cccnc3C(F)(F)F)CC4)CC2)n1 (stereo not shown) — recorded inhibition at 10 µM = 102

Briefly, inhibition at 10 µM measured for CN(C(=O)c1ccc2c(c1)C(NC(=O)c1ccccc1Cl)CC2)C1CCN(c2ccnc(C(C)(C)C)n2)CC1 (stereo not shown) : 101
